target: human FGFR2c protein (recombinant, coated on ELISA plates) (human) (UniProt P21802); test: ELISA, plate-coated human FGFR2c
EXPERIMENTAL ENDPOINT: Emax (A450)
Write the answer as a number in A450, unit excluded.

# BINDER, UNIT ABBREV, VALUE
rows = [
    ("BGAh9239 (antibody, human IgG1, kappa, V domains shown) VH: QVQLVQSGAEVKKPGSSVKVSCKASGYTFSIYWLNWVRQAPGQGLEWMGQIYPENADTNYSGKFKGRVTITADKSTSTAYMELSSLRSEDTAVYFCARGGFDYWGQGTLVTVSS VL: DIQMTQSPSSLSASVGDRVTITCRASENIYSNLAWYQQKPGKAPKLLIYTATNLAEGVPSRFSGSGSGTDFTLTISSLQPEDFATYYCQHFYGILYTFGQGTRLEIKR", "A450", 0.13),
    ("BGAm1823 (antibody, V domains shown) VH: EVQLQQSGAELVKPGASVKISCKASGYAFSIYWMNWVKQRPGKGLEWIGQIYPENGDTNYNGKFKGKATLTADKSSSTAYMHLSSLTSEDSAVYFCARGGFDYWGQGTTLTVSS VL: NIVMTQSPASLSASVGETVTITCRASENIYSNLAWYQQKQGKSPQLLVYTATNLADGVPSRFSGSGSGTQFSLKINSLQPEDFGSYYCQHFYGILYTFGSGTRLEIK", "A450", 0.116),
    ("BGAh9179 (antibody, human IgG1, kappa, V domains shown) VH: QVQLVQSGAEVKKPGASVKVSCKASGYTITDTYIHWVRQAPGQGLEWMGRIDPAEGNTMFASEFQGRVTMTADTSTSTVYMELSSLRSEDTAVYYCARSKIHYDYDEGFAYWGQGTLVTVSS VL: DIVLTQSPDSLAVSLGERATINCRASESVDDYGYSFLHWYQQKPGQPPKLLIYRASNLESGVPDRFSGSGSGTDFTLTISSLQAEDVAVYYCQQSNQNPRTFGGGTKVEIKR", "A450", 0.086),
]

Read the next record carefully.
Request the reported Emax (A450) associated with BGAm1371 (antibody, V domains shown) VH: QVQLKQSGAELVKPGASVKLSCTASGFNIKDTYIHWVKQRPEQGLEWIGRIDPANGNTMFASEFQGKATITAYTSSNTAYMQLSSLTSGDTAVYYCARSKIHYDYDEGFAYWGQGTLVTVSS VL: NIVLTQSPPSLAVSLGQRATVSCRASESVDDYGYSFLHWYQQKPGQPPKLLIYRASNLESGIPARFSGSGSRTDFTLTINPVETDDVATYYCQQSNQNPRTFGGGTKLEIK
0.204
